B1: HEEH_KT_rd6_0007 (parent)
chain: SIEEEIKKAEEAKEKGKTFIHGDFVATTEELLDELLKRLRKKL

# Variants of: B1
# Test summary: folding stability dG (cDNA display proteolysis); higher = more stable
# Conditions: PBS, room temperature
This listing pairs variants with measured folding stability dG.
Property measured: folding stability dG

>>> reported_result("SIEEEIKKAEEAKEKGKTFIHGDFVATTEELLQELLKRLRKKL [D33Q]")
"0.991 kcal/mol"
>>> reported_result("SIEEEIKKAEEAKEKGKTFIHGDFVATTEELLDPLLKRLRKKL [E34P]")
"0.383 kcal/mol"
>>> reported_result("SIEEEIKKAEEAKEKGKTFIHGDFVATTEELLDELLKRLRPKL [K41P]")
"0.057 kcal/mol"
>>> reported_result("SIEEEIKKAEEAKEKGKTFIHGDFVATTEEFLDELLKRLRKKL [L31F]")
"0.877 kcal/mol"
>>> reported_result("SIEEEIKKAEEAKEKLKTFIHGDFVATTEELLDELLKRLRKKL [G16L]")
"1.22 kcal/mol"
>>> reported_result("SIEEEIKKAEEAKEKGKTFIHGDFWATTEELLDELLKRLRKKL [V25W]")
"1.39 kcal/mol"
>>> reported_result("SIEEEIKKAKEAKEKGKTFIHGDFVATTEELLDELLKRLRKKL [E10K]")
"1.04 kcal/mol"
>>> reported_result("SIEEEIKKAEEAKEKGKTFIHGDFVATTEELLDELFKRLRKKL [L36F]")
"0.757 kcal/mol"
>>> reported_result("SIEEEIKKAEEAKEKGKTFIHGDFVAKTEELLDELLKRLRKKL [T27K]")
"1.09 kcal/mol"
>>> reported_result("SIEEEIKKAEEAKEKGKTFIHGDFVATTEELLDEPLKRLRKKL [L35P]")
"-0.141 kcal/mol"
>>> reported_result("SIEEEIKKAEEAKEKGKTFIHGDFVATTEELLDERLKRLRKKL [L35R]")
"0.542 kcal/mol"
>>> reported_result("SIEEEIKKAEEAKEKGKTIIHGDFVATTEELLDELLKRLRKKL [F19I]")
"0.902 kcal/mol"
>>> reported_result("SIEEEIKKAGEAKEKGKTFIHGDFVATTEELLDELLKRLRKKL [E10G]")
"0.706 kcal/mol"
>>> reported_result("SIEEEIKKAEEAKEKGKTFIHGDFVATTEELLDELTKRLRKKL [L36T]")
"0.179 kcal/mol"
>>> reported_result("SIEEEIKKAEEAKEKGKTSIHGDFVATTEELLDELLKRLRKKL [F19S]")
"0.618 kcal/mol"
>>> reported_result("SIEEEIKKAEEAFEKGKTFIHGDFVATTEELLDELLKRLRKKL [K13F]")
"0.912 kcal/mol"
>>> reported_result("SIEEEIKKAEEAKDKGKTFIHGDFVATTEELLDELLKRLRKKL [E14D]")
"1.1 kcal/mol"
>>> reported_result("SIEEEIKKAEEAKEKGKEFIHGDFVATTEELLDELLKRLRKKL [T18E]")
"1.12 kcal/mol"
>>> reported_result("SIEEEIKKAEEAGEKGKTFIHGDFVATTEELLDELLKRLRKKL [K13G]")
"0.684 kcal/mol"
>>> reported_result("SIEEEIKKAEEAKEKGKTFIHGDFVATTEEQLDELLKRLRKKL [L31Q]")
"1.75 kcal/mol"
>>> reported_result("SIEEEIKKAEAAKEKGKTFIHGDFVATTEELLDELLKRLRKKL [E11A]")
"1.16 kcal/mol"
>>> reported_result("SIEEEIKKAEEAKEKFKTFIHGDFVATTEELLDELLKRLRKKL [G16F]")
"1.2 kcal/mol"
>>> reported_result("SIEEEIKKAEEAKEKGKTFIHGDFVATTEEHLDELLKRLRKKL [L31H]")
"1.08 kcal/mol"
>>> reported_result("SIEEEIGKAEEAKEKGKTFIHGDFVATTEELLDELLKRLRKKL [K7G]")
"0.824 kcal/mol"
>>> reported_result("SIEEEIKKAEEAKEKGKTFIHGDFVATTEELLDELLKRLRSKL [K41S]")
"1.12 kcal/mol"
>>> reported_result("SIEEEIKKAEEMKEKGKTFIHGDFVATTEELLDELLKRLRKKL [A12M]")
"0.749 kcal/mol"
>>> reported_result("SIEEEIKKAEEAKEKRKTFIHGDFVATTEELLDELLKRLRKKL [G16R]")
"0.873 kcal/mol"
>>> reported_result("SIEEEIKMAEEAKEKGKTFIHGDFVATTEELLDELLKRLRKKL [K8M]")
"1.26 kcal/mol"
>>> reported_result("SIEEEITKAEEAKEKGKTFIHGDFVATTEELLDELLKRLRKKL [K7T]")
"0.994 kcal/mol"
>>> reported_result("SIEEEIKKAVEAKEKGKTFIHGDFVATTEELLDELLKRLRKKL [E10V]")
"1.17 kcal/mol"
